Assay system: Gonadotropin-releasing hormone receptor (Rattus norvegicus)
Sequence (whole entry): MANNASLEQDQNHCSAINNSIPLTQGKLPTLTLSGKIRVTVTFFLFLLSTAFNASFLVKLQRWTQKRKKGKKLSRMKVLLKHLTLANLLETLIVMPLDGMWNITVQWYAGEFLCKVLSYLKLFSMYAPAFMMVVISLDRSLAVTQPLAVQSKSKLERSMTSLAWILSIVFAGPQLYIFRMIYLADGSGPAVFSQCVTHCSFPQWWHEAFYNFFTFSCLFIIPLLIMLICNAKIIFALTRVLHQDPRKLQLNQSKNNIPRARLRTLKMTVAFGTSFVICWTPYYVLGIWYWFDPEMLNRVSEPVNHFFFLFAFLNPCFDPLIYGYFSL
Test protocol: Antagonist activity at LH-RH receptor in Sprague-Dawley rat pituitary gland assessed as change in 0.3 ng/mL LH-RH-induced follicle-stimulating hormone release in medium at 1 ug/ml preincubated for 2 hrs followed by LH-RH addition at 5th and 6th hr 5 mins post drug addition and measured every hour for 4 hrs by RIA relative to vehicle-treated control
Endpoint: Activity (ng/mL)

For orientation, consider the following solved cases.
Ask: Give the reported value of Activity for this record: CCNC(=O)[C@@H]1CCCN1C(=O)[C@H](CCCNC(=N)N)NC(=O)[C@H](CC(C)C)NC(=O)[C@@H](C)NC(=O)[C@H](Cc1ccc(O)cc1)NC(=O)[C@H](CO)NC(=O)[C@H](CC(C)C)NC(=O)[C@H](CC(C)C)NC(=O)[C@@H]1CCC(=O)N1
Reply: 3980

Ask: Give the reported value of Activity for this record: CCNC(=O)[C@@H]1CCCN1C(=O)[C@H](CCCNC(=N)N)NC(=O)[C@H](CC(C)C)NC(=O)[C@@H](C)NC(=O)[C@H](Cc1ccc(O)cc1)NC(=O)[C@H](CO)NC(=O)[C@H](CC(C)C)NC(=O)[C@@H](NC(=O)[C@@H]1CCC(=O)N1)C(C)C
Reply: 4320

Ask: Give the reported value of Activity for this record: CCNC(=O)[C@@H]1CCCN1C(=O)[C@H](CCCNC(=N)N)NC(=O)[C@H](CC(C)C)NC(=O)[C@@H](C)NC(=O)[C@H](Cc1ccc(O)cc1)NC(=O)[C@H](CO)NC(=O)[C@H](CC(C)C)NC(=O)[C@@H](NC(=O)[C@@H]1CCC(=O)N1)[C@@H](C)CC
Reply: 3330

[A] CCNC(=O)[C@@H]1CCCN1C(=O)[C@H](CCCNC(=N)N)NC(=O)[C@H](CC(C)C)NC(=O)[C@@H](C)NC(=O)[C@H](Cc1ccc(O)cc1)NC(=O)[C@H](CO)NC(=O)[C@H](CC(C)C)NC(=O)[C@H](Cc1ccccc1)NC(=O)[C@@H]1CCC(=O)N1
[B] CCC[C@H](NC(=O)[C@H](CC(C)C)NC(=O)[C@@H]1CCC(=O)N1)C(=O)N[C@@H](CO)C(=O)N[C@@H](Cc1ccc(O)cc1)C(=O)N[C@H](C)C(=O)N[C@@H](CC(C)C)C(=O)N[C@@H](CCCNC(=N)N)C(=O)N1CCC[C@H]1C(=O)NCC
[C] CCCC[C@H](NC(=O)[C@H](CC(C)C)NC(=O)[C@@H]1CCC(=O)N1)C(=O)N[C@@H](CO)C(=O)N[C@@H](Cc1ccc(O)cc1)C(=O)N[C@H](C)C(=O)N[C@@H](CC(C)C)C(=O)N[C@@H](CCCNC(=N)N)C(=O)N1CCC[C@H]1C(=O)NCC
Ask: // ranking: key=Activity, reverse=True Hello, could you send the labels back in the order asked? Thank you.
Reply: B, C, A
(B: 3900 ng/mL, C: 2240 ng/mL, A: 1560 ng/mL)

----------
Assay system: Gonadotropin-releasing hormone receptor (Rattus norvegicus) (UniProt P30969)
Test protocol: Antagonist activity at LH-RH receptor in Sprague-Dawley rat pituitary gland assessed as change in 0.3 ng/mL LH-RH-induced luteinizing hormone release in medium at 10 ug/ml preincubated for 2 hrs followed by LH-RH addition at 5th and 6th hr 5 mins post drug addition and measured every hour for 4 hrs by RIA relative to vehicle-treated control
Endpoint: Activity (ng/mL)

[P] CCNC(=O)[C@@H]1CCCN1C(=O)[C@H](CCCNC(=N)N)NC(=O)[C@H](CC(C)C)NC(=O)[C@@H](C)NC(=O)[C@H](Cc1ccc(O)cc1)NC(=O)[C@H](CO)NC(=O)[C@H](CC(C)C)NC(=O)[C@@H](NC(=O)[C@@H]1CCC(=O)N1)C(C)C
[Q] CCCC[C@H](NC(=O)[C@H](CC(C)C)NC(=O)[C@@H]1CCC(=O)N1)C(=O)N[C@@H](CO)C(=O)N[C@@H](Cc1ccc(O)cc1)C(=O)N[C@H](C)C(=O)N[C@@H](CC(C)C)C(=O)N[C@@H](CCCNC(=N)N)C(=O)N1CCC[C@H]1C(=O)NCC
Ask: // compare measured Activity, left P , right Q , return larger In your reply, give the label of the chosen option.
Reply: P
(P: 63 ng/mL, Q: 28 ng/mL)

----------
Assay system: Gonadotropin-releasing hormone receptor (Rattus norvegicus)
Test protocol: Antagonist activity at LH-RH receptor in Sprague-Dawley rat pituitary gland assessed as change in 0.3 ng/mL LH-RH-induced luteinizing hormone release in medium at 1 ug/ml preincubated for 2 hrs followed by LH-RH addition at 5th and 6th hr 5 mins post drug addition and measured every hour for 4 hrs by RIA relative to vehicle-treated control
Endpoint: Activity (ng/mL)

For orientation, consider the following solved cases.
Ask: Give the reported value of Activity for this record: CCNC(=O)[C@@H]1CCCN1C(=O)[C@H](CCCNC(=N)N)NC(=O)[C@H](CC(C)C)NC(=O)[C@@H](C)NC(=O)[C@H](Cc1ccc(O)cc1)NC(=O)[C@H](CO)NC(=O)[C@H](CC(C)C)NC(=O)[C@@H](NC(=O)[C@@H]1CCC(=O)N1)C(C)C
Reply: 272

Ask: Give the reported value of Activity for this record: CCNC(=O)[C@@H]1CCCN1C(=O)[C@H](CCCNC(=N)N)NC(=O)[C@H](CC(C)C)NC(=O)[C@@H](C)NC(=O)[C@H](Cc1ccc(O)cc1)NC(=O)[C@H](CO)NC(=O)[C@H](CC(C)C)NC(=O)[C@H](Cc1ccccc1)NC(=O)[C@@H]1CCC(=O)N1
Reply: 77

Ask: Give the reported value of Activity for this record: CCNC(=O)[C@@H]1CCCN1C(=O)[C@H](CCCNC(=N)N)NC(=O)[C@H](CC(C)C)NC(=O)[C@@H](C)NC(=O)[C@H](Cc1ccc(O)cc1)NC(=O)[C@H](CO)NC(=O)[C@H](CC(C)C)NC(=O)[C@H](CC(C)C)NC(=O)[C@@H]1CCC(=O)N1
Reply: 60

[a] CCCC[C@H](NC(=O)[C@H](CC(C)C)NC(=O)[C@@H]1CCC(=O)N1)C(=O)N[C@@H](CO)C(=O)N[C@@H](Cc1ccc(O)cc1)C(=O)N[C@H](C)C(=O)N[C@@H](CC(C)C)C(=O)N[C@@H](CCCNC(=N)N)C(=O)N1CCC[C@H]1C(=O)NCC
[b] CCNC(=O)[C@@H]1CCCN1C(=O)[C@H](CCCNC(=N)N)NC(=O)[C@H](CC(C)C)NC(=O)[C@@H](C)NC(=O)[C@H](Cc1ccc(O)cc1)NC(=O)[C@H](CO)NC(=O)[C@H](CC(C)C)NC(=O)[C@@H](NC(=O)[C@@H]1CCC(=O)N1)[C@@H](C)CC
Ask: When the recorded Activity values are compared, which is smaller: that of a or that of b ? In your reply, give the label of the chosen option.
Reply: a

----------
Assay system: UniProt:P30969
Test protocol: Antagonist activity at LH-RH receptor in Sprague-Dawley rat pituitary gland assessed as change in 0.3 ng/mL LH-RH-induced follicle-stimulating hormone release in medium at 10 ug/ml preincubated for 2 hrs followed by LH-RH addition at 5th and 6th hr 5 mins post drug addition and measured every hour for 4 hrs by RIA relative to vehicle-treated control
Endpoint: Activity (ng/mL)

For orientation, consider the following solved cases.
Ask: Give the reported value of Activity for this record: CCNC(=O)[C@@H]1CCCN1C(=O)[C@H](CCCNC(=N)N)NC(=O)[C@H](CC(C)C)NC(=O)[C@@H](C)NC(=O)[C@H](Cc1ccc(O)cc1)NC(=O)[C@H](CO)NC(=O)[C@H](CC(C)C)NC(=O)[C@@H](NC(=O)[C@@H]1CCC(=O)N1)[C@@H](C)CC
Reply: 1760

Ask: Give the reported value of Activity for this record: CCNC(=O)[C@@H]1CCCN1C(=O)[C@H](CCCNC(=N)N)NC(=O)[C@H](CC(C)C)NC(=O)[C@@H](C)NC(=O)[C@H](Cc1ccc(O)cc1)NC(=O)[C@H](CO)NC(=O)[C@H](CC(C)C)NC(=O)[C@H](CC(C)C)NC(=O)[C@@H]1CCC(=O)N1
Reply: 1460

Ask: Give the reported value of Activity for this record: CCCC[C@H](NC(=O)[C@H](CC(C)C)NC(=O)[C@@H]1CCC(=O)N1)C(=O)N[C@@H](CO)C(=O)N[C@@H](Cc1ccc(O)cc1)C(=O)N[C@H](C)C(=O)N[C@@H](CC(C)C)C(=O)N[C@@H](CCCNC(=N)N)C(=O)N1CCC[C@H]1C(=O)NCC
Reply: 1630

[1] CCC[C@H](NC(=O)[C@H](CC(C)C)NC(=O)[C@@H]1CCC(=O)N1)C(=O)N[C@@H](CO)C(=O)N[C@@H](Cc1ccc(O)cc1)C(=O)N[C@H](C)C(=O)N[C@@H](CC(C)C)C(=O)N[C@@H](CCCNC(=N)N)C(=O)N1CCC[C@H]1C(=O)NCC
[2] CCNC(=O)[C@@H]1CCCN1C(=O)[C@H](CCCNC(=N)N)NC(=O)[C@H](CC(C)C)NC(=O)[C@@H](C)NC(=O)[C@H](Cc1ccc(O)cc1)NC(=O)[C@H](CO)NC(=O)[C@H](CC)NC(=O)[C@H](CC(C)C)NC(=O)[C@@H]1CCC(=O)N1
[3] CCNC(=O)[C@@H]1CCCN1C(=O)[C@H](CCCNC(=N)N)NC(=O)[C@H](CC(C)C)NC(=O)[C@@H](C)NC(=O)[C@H](Cc1ccc(O)cc1)NC(=O)[C@H](CO)NC(=O)[C@H](CC(C)C)NC(=O)[C@H](Cc1ccccc1)NC(=O)[C@@H]1CCC(=O)N1
Ask: Could you please order the items by Activity, going from the lowest number to the highest? Hello, could you send the labels back in the order asked? Thank you.
Reply: 3, 1, 2
(3: 549 ng/mL, 1: 2000 ng/mL, 2: 3480 ng/mL)
